biological target: CYP2C19 (Homo sapiens); construct: using a human liver microsomal assay with a CYP isoform specific probe substrate; tissue Cyprotex Discovery Limited; host or cells: human liver microsomes; assay: CYP panel inhibition, human liver microsomal assay (Cyprotex); format: in vitro ADME; settings: human liver microsomes, isoform specific probe substrate
Sequence (P33261 whole entry, canonical isoform): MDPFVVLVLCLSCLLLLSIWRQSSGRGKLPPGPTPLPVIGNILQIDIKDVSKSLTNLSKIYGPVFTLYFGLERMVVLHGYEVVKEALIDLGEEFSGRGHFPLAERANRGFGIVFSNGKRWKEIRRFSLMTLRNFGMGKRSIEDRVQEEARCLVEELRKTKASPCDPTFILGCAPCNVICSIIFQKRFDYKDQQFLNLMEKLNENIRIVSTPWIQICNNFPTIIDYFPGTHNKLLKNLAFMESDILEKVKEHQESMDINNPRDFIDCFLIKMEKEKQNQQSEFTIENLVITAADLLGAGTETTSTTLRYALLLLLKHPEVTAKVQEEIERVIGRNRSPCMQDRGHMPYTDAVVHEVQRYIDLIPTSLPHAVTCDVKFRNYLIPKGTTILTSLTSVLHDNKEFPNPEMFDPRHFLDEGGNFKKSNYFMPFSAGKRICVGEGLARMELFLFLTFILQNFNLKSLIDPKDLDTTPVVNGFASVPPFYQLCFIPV
Metric name: IC50 (nM)
Your answer should be a plain number; it is taken to be in nM.

Give recorded IC50 with CYP2C19 (Homo sapiens) for the following molecule: CC#CCOc1ccc2cc(C(O)(c3ccc(Br)cc3)c3cccnc3)oc2c1 (stereo not shown) [Compound 10c]
740

###

target: CYP2C9 (relative to CYP19A1) (Homo sapiens, UniProt P11712); construct: using a human liver microsomal assay with a CYP isoform specific probe substrate; tissue Cyprotex Discovery Limited; host or cells: human liver microsomes; assay: CYP panel inhibition, human liver microsomal assay (Cyprotex); type: in vitro ADME; details: human, human liver microsomes; ratio of CYP IC50 to CYP19A1 IC50; read-out: Selectivity CYP19A1 compared with CYP2C9
Sequence (P11712 whole entry, canonical isoform): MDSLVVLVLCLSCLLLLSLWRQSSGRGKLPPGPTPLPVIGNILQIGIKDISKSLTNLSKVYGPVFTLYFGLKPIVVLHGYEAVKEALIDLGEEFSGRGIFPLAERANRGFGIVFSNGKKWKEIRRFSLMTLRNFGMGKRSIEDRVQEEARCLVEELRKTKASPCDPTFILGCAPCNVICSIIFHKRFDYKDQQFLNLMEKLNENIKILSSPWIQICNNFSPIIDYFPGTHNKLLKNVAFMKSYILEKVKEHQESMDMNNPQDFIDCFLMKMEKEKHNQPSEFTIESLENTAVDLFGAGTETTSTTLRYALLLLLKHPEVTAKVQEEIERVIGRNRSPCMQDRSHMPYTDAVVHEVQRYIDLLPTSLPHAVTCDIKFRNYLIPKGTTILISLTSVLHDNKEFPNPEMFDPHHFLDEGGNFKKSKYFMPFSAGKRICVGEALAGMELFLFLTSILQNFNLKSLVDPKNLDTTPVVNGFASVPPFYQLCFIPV
Metric name: selectivity ratio
Answer using only a numeral; do not append any unit.

Give recorded selectivity ratio with CYP2C9 (relative to CYP19A1) (Homo sapiens, UniProt P11712) for the following compound: CC#CCOc1ccc2cc(C(O)(c3ccc(Br)cc3)c3cccnc3)oc2c1 (stereo not shown) [Compound 10c]
5900

###

target: CYP2C19 (relative to CYP19A1) (Homo sapiens, UniProt P33261); construct: using a human liver microsomal assay with a CYP isoform specific probe substrate; tissue Cyprotex Discovery Limited; host or cells: human liver microsomes; experiment: CYP panel inhibition, human liver microsomal assay (Cyprotex); type: in vitro ADME; conditions: human, human liver microsomes; ratio of CYP IC50 to CYP19A1 IC50; read-out: Selectivity CYP19A1 compared with CYP2C19
Sequence (P33261 whole entry, canonical isoform): as the sequence (P33261 whole entry, canonical isoform) above
Metric name: selectivity ratio
Answer using only a numeral; do not append any unit.

Which selectivity ratio is reported for this compound? CC#CCOc1ccc2cc(C(O)(c3ccc(Br)cc3)c3cccnc3)oc2c1 (stereo not shown) [Compound 10c]
892

###

Target: Aromatase (CYP19A1) (Homo sapiens, UniProt P11511)
Construct: placental choriocarcinoma JEG-3 cells, known to have high aromatase activity; host or cells: JEG-3
Sequence (P11511 whole entry, canonical isoform): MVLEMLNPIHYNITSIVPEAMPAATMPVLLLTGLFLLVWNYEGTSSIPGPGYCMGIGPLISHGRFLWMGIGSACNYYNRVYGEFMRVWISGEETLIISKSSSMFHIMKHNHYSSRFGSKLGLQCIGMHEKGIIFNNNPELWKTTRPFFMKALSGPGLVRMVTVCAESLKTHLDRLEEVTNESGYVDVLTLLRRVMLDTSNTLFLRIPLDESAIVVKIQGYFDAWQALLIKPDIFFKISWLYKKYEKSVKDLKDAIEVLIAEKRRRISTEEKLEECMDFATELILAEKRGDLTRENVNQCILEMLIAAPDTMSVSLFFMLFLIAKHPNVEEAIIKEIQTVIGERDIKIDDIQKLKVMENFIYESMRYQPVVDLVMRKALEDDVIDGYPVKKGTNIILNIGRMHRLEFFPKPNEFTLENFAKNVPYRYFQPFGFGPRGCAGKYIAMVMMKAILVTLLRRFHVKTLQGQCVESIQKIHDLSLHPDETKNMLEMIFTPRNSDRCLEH
Experiment: Aromatase activity, modified tritiated water assay in JEG-3 cells
Type: cell-based
Settings: JEG-3 cells, 0.001–10 nM inhibitor, 1 h incubation, triplicates; read-out: CYP19A1 IC50
Procedure: Briefly, placental choriocarcinoma JEG-3 cells, known to have high aromatase activity, were grown to approximately 80% confluence in six-well culture plates. […] Aromatase activity was measured in the absence and presence of inhibitors (Fig. 3). Aromatase activity results were determined as a concentration of product formed per mg of protein per hour. Aromatase activity was assayed using a modified tritiated water assay as previously reported.[12] […] H2O, was quantified by scintillation counting. […]
Attribute: pIC50
In simple prose, pIC50 is minus the logarithm base ten of a concentration in moles per litre.

# example entries with known answers
Molecule: CCC#CCOc1ccc2cc(C(O)(c3ccc(Br)cc3)c3cccnc3)oc2c1 (stereo not shown) [Compound 11c]
Measured: 8.31

Molecule: COc1ccc2cc(C(O)(c3cccnc3)c3ccc(Cl)cc3Cl)oc2c1 (stereo not shown) [Compound 4d]
Measured: 8.72

Molecule: CC#CCOc1ccc2cc(C(O)(c3ccc(Br)cc3)c3cccnc3)oc2c1 (stereo not shown) [Compound 10c]
Measured: 9.08

Which pIC50 is reported for this molecule? CCC#CCOc1ccc2cc(C(O)(c3ccc(Cl)cc3)c3cccnc3)oc2c1 (stereo not shown) [Compound 11b]
9.04

Which pIC50 is reported for this molecule? COc1ccc2cc(C(O)(c3ccc(Br)cc3)c3cccnc3)oc2c1 (stereo not shown) [Compound 4c]
9.40

Which pIC50 is reported for this molecule? CC#CCOc1ccc2cc(C(O)(c3ccc(Cl)cc3)c3cccnc3)oc2c1 (stereo not shown) [Compound 10b]
8.98

###

molecular target: Aromatase (CYP19A1) (Homo sapiens); construct: placental choriocarcinoma JEG-3 cells, known to have high aromatase activity; host or cells: JEG-3; test: Aromatase activity, modified tritiated water assay in JEG-3 cells; type: cell-based; details: CYP19A1 value restated in μM in CYP profile table; read-out: IC50, CYP isoform 19A1
Metric name: IC50 (µM)
Your answer should be a plain number; it is taken to be in µM.

Which IC50 is reported for this compound? CC#CCOc1ccc2cc(C(O)(c3ccc(Br)cc3)c3cccnc3)oc2c1 (stereo not shown) [Compound 10c]
0.00083

###

Molecular target: CYP1A2 (Homo sapiens)
Construct: using a human liver microsomal assay with a CYP isoform specific probe substrate; tissue Cyprotex Discovery Limited; host or cells: human liver microsomes
Sequence (P05177 1-516): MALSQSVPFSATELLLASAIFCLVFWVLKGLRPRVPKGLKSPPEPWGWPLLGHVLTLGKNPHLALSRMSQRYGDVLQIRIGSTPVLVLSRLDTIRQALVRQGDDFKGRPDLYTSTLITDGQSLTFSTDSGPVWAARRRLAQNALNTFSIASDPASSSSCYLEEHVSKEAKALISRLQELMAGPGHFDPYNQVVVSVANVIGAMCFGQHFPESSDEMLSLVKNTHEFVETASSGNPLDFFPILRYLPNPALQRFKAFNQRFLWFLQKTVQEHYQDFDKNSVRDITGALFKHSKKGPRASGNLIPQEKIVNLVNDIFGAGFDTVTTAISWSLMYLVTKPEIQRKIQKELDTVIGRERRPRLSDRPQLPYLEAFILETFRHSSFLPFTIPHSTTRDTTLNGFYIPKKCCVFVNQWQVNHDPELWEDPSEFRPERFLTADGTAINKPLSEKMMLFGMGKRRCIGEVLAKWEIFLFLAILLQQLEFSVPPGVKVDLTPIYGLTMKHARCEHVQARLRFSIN
Test: CYP panel inhibition, human liver microsomal assay (Cyprotex)
Assay type: in vitro ADME
Settings: human liver microsomes, isoform specific probe substrate
pIC50: −log10 of the molar value.
Metric name: pIC50

Which pIC50 is reported for this compound? CC#CCOc1ccc2cc(C(O)(c3ccc(Br)cc3)c3cccnc3)oc2c1 (stereo not shown) [Compound 10c]
< 4.60

###

biological target: CYP3A4 (Homo sapiens, UniProt P08684); construct: using a human liver microsomal assay with a CYP isoform specific probe substrate; tissue Cyprotex Discovery Limited; host or cells: human liver microsomes; experiment: CYP panel inhibition, human liver microsomal assay (Cyprotex); format: in vitro ADME; details: human liver microsomes, isoform specific probe substrate
Sequence (P08684 whole entry, canonical isoform): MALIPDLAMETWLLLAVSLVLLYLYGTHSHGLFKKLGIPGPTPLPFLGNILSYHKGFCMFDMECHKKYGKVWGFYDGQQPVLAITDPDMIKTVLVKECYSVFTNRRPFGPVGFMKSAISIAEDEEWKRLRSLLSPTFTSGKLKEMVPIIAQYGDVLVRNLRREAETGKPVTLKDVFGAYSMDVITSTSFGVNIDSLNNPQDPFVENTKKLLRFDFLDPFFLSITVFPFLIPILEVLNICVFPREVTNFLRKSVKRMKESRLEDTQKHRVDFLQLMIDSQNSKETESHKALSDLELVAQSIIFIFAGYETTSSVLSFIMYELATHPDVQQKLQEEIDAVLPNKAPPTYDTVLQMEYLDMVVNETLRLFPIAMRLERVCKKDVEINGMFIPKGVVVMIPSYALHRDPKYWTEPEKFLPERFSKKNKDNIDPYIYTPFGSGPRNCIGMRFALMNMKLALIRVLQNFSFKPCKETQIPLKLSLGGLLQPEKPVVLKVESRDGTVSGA
Metric name: IC50 (µM)
Your answer should be a plain number; it is taken to be in µM.

Give recorded IC50 with CYP3A4 (Homo sapiens, UniProt P08684) for the following compound: CC#CCOc1ccc2cc(C(O)(c3ccc(Br)cc3)c3cccnc3)oc2c1 (stereo not shown) [Compound 10c]
3.38

###

molecular target: Aromatase (CYP19A1) (Homo sapiens, UniProt P11511); construct: placental choriocarcinoma JEG-3 cells, known to have high aromatase activity; host or cells: JEG-3; assay: Aromatase activity, modified tritiated water assay in JEG-3 cells; type: cell-based; conditions: JEG-3 cells, 0.001–10 nM inhibitor, 1 h incubation, triplicates; read-out: CYP19A1 IC50
Attribute: IC50

Give recorded IC50 with Aromatase (CYP19A1) (Homo sapiens, UniProt P11511) for the following compound: CCC#CCOc1ccc2cc(C(O)(c3ccc(F)cc3)c3cccnc3)oc2c1 (stereo not shown) [Compound 11a]
~10 nM

Give recorded IC50 with Aromatase (CYP19A1) (Homo sapiens, UniProt P11511) for the following compound: CC#CCOc1ccc2cc(C(O)(c3cccnc3)c3ccc(Cl)cc3Cl)oc2c1 (stereo not shown) [Compound 10d]
> 10 nM

Give recorded IC50 with Aromatase (CYP19A1) (Homo sapiens, UniProt P11511) for the following compound: CCC#CCOc1ccc2cc(C(O)(c3cccnc3)c3ccc(Cl)cc3Cl)oc2c1 (stereo not shown) [Compound 11d]
> 10 nM

Give recorded IC50 with Aromatase (CYP19A1) (Homo sapiens, UniProt P11511) for the following compound: CC#CCOc1ccc2cc(C(O)(c3ccc(F)cc3)c3cccnc3)oc2c1 (stereo not shown) [Compound 10a]
~10 nM
